biological target: FTase (Homo sapiens, UniProt P49354+P49356); experiment: in vitro inhibition of FTase by farnesylated monophosphates; assay type: biochemical; conditions: read-out: IC50 for inhibition of FTase
pIC50: −log10 of the molar value.
I'd be grateful if you could share measured pIC50 for these entries.

>  <compound>
CC(C)=CCCC(C)=CCCC(=CCOP(=O)(O)O)C(C)(C)C [3-t-butylfarnesyl monophosphate]

>  <assay.result>
~7.80

$$$$

# query: pIC50 of entry C=CCC(=CCOP(=O)(O)O)CCC=C(C)CCC=C(C)C [3-Allylfarnesyl monophosphate, 3-allylfarnesyl monophosphate]
~7.96
